target: Menin (Homo sapiens, UniProt O00255)
Assign log10 of IC50 to each entry below.
Short version: log10 scale, IC50, nM.

Past entries and their recorded results:
INSERT INTO assay_data (molecule, measurement_label, observed_measurement) VALUES
  ('CC(C)N(C(=O)c1cc(F)ccc1-n1cc(C(=O)C2CCN(C(=O)[C@@H]3CCC4(CC4)N3)CC2)c2ccncc21)C(C)C', 'log10 of IC50', 1.28),
  ('CCN(C(=O)c1cc(F)ccc1-n1cc(C(=O)C2CN(C(=O)[C@H]3N[C@@H]4CC[C@H]3C4)C2)c2ccncc21)C(C)C', 'log10 of IC50', 1.43),
  ('CC(C)N(C(=O)c1cc(F)ccc1-n1cc(C(=O)C2CCN(C(=O)[C@H]3N[C@H]4C[C@@H]3[C@@H](F)C4)CC2)c2ccncc21)C(C)C', 'log10 of IC50', 1.40),
  ('CC(C)c1ncccc1-c1cc(F)ccc1-n1cc(C(=O)C2CN(C(=O)[C@H]3N[C@@H]4CC[C@H]3C4)C2)c2ccncc21', 'log10 of IC50', 0.60),
  ('CCN(C(=O)c1cc(F)ccc1-n1c(C)c(C(=O)C2CCN(C(=O)[C@@H]3CCC4(CC4)N3)CC2)c2ccncc21)C(C)C (single isomer, unassigned)', 'log10 of IC50', 3.33),
  ('O=C(c1cn(-c2ccc(F)cc2-c2cncnc2C2CC2)c2cnccc12)C1CCN(C(=O)[C@H]2N[C@@H]3CC[C@H]2C3)CC1', 'log10 of IC50', 1.26);

From here, focus on the item given below.
Problem: GET /values?readout=log10 of IC50&system=Menin (Homo sapiens, UniProt O00255)&item= Cc1c(C(=O)C2CCN(C(=O)[C@H]3NC[C@@H]4C[C@@H]43)CC2)c2ccncc2n1-c1ccc(F)cc1C(=O)N(C(C)C)C(C)C (single isomer, unassigned)
Solution: 3.13

----------
Assign pIC50 to each entry below.
Target chain: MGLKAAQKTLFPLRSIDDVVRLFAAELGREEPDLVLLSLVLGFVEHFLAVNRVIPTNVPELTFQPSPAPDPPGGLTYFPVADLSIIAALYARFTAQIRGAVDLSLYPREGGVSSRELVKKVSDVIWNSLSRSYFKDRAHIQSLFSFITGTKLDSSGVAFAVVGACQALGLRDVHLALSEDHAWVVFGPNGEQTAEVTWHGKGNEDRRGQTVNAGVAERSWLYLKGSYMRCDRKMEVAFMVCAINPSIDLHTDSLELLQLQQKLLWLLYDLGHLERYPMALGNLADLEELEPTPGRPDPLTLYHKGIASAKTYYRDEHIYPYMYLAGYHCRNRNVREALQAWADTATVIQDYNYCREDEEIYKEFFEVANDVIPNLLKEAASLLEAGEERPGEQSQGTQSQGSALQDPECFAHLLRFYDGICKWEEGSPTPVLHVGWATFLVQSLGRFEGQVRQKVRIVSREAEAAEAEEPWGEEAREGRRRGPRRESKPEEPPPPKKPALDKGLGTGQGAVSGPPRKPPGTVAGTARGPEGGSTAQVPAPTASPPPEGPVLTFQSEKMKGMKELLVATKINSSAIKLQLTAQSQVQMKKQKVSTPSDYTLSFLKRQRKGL
Give bare numbers, as −log10 of the molar value.

Past entries and their recorded results:
INSERT INTO measurements (compound, measurement_label, observed_measurement) VALUES
  ('CC(C)n1nccc1-c1cc(F)ccc1-n1cc(C(=O)C2CCN(C(=O)[C@H]3N[C@@H]4CC[C@H]3C4)CC2)c2ccncc21', 'pIC50', 7.62),
  ('CC(C)c1ccncc1-c1cc(F)ccc1-n1cc(C(=O)C2CCN(C(=O)[C@H]3N[C@@H]4CC[C@H]3C4)CC2)c2ccncc21', 'pIC50', 8.00),
  ('C=C1C[C@@H]2CC[C@H]1[C@@H](C(=O)N1CCC(C(=O)c3cn(-c4ccc(F)cc4C(=O)N(C(C)C)C(C)C)c4cnccc34)CC1)N2', 'pIC50', 7.43),
  ('CC(C)N(C(=O)c1cc(F)ccc1-n1cc(C(=O)[C@H]2CCN(C[C@H]3CC[C@H](NS(C)(=O)=O)CC3)C2)c2ccncc21)C(C)C', 'pIC50', 7.54),
  ('CCN(C(=O)c1cc(F)ccc1-n1c(C)c(C(=O)[C@@H]2CCN(C(=O)[C@@H]3CC[C@H](C)N3)[C@@H](C)C2)c2ccncc21)C(C)C', 'pIC50', 7.23),
  ('CCN(C(=O)c1cc(F)ccc1-n1c(C)c(C(=O)C2CCN(C(=O)[C@@H]3CCC(C)(C)N3)CC2)c2ccncc21)C(C)C (single isomer, unassigned)', 'pIC50', 5.26),
  ('Cc1c(C(=O)[C@@H]2CCN(C(=O)[C@@H]3CC[C@H](C)N3)[C@@H](C)C2)c2ccncc2n1-c1ccc(F)cc1C(=O)N(C(C)C)C(C)C', 'pIC50', 7.12),
  ('CC(C)N(C(=O)c1cc(F)ccc1-n1cc(C(=O)C2CN(C(=O)[C@H]3N[C@@H]4CC[C@H]3C4)C2)c2ccnc(F)c21)C(C)C', 'pIC50', 7.77);

// for each compound in input: emit pIC50
1. COCCN(C)CCC[C@H](C(C)C)N1CCC(C(=O)c2cn(-c3ccc(F)cc3C(=O)N(C(C)C)C(C)C)c3cnccc23)CC1 (racemic)
2. CC(C)N(C(=O)c1cc(F)ccc1-n1cc(C(=O)C2CN(C(=O)[C@H]3N[C@@H]4CC[C@H]3C4)C2)c2ccncc21)C(C)C
3. CC(C)c1ncsc1-c1cc(F)ccc1-n1cc(C(=O)C2CN(C(=O)[C@H]3N[C@@H]4CC[C@H]3C4)C2)c2ccncc21

Solution:
1: 8.15; 2: 7.74; 3: 8.22

// for each compound in input: emit pIC50
1. CC(C)N(C(=O)c1cc(F)ccc1-n1cc(C(=O)[C@H]2CCN(C(=O)[C@H]3N[C@@H]4CC[C@H]3C4)C2)c2ccncc21)C(C)C
2. CCN(C(=O)c1cc(F)ccc1-n1c(C)c(C(=O)[C@@H]2CCN(C(=O)[C@@H]3CCC4(CC4)N3)[C@@H](C)C2)c2ccncc21)C(C)C (single isomer, unassigned; form 2) [US20240335431, Example 52-2]
3. CC(C)c1ncsc1-c1cc(F)ccc1-n1cc(C(=O)C2CCN(C(=O)[C@H]3N[C@@H]4CC[C@H]3C4)CC2)c2ccncc21

Solution:
7.33
7.74
8.05

// for each compound in input: emit pIC50
1. CC(C)N(C(=O)c1cc(F)ccc1-n1cc(C(=O)C2CN(C(=O)[C@H]3NC4CCC3CC4)C2)c2ccncc21)C(C)C
2. CCN(C(=O)c1cc(F)ccc1-n1cc(C(=O)C2CN(C(=O)[C@H]3NC4CCC3CC4)C2)c2ccncc21)C(C)C

Solution:
7.38
7.29

// for each compound in input: emit pIC50
1. CC(C)c1ccccc1-c1cc(F)ccc1-n1cc(C(=O)C2CCN(C(=O)[C@H]3N[C@@H]4CC[C@H]3C4)CC2)c2ccncc21
2. C[C@@H]1COC[C@H](C)N1C(=O)c1cc(F)ccc1-n1cc(C(=O)C2CCN(C(=O)[C@H]3N[C@@H]4CC[C@H]3C4)CC2)c2ccncc21
3. CCN(C(=O)c1cc(F)ccc1-n1c(C)c(C(=O)C2CCN(C(=O)[C@H]3N[C@@H]4CC[C@H]3C4)CC2)c2ccncc21)C(C)C
4. Cc1c(C(=O)C2CCN(C(=O)[C@H]3NC[C@@H]4C[C@@H]43)CC2)c2ccncc2n1-c1ccc(F)cc1-c1cnccc1C(C)C

Solution:
8.15
7.01
7.47
7.82

Problem: For the compound Cc1c(C(=O)C2CCN(C(=O)[C@@H]3CC[C@H](C)N3)CC2)c2ccncc2n1-c1ccc(F)cc1C(=O)N(C(C)C)C(C)C , what pIC50 is on record?
Solution: 6.98
